Parameter log10(EC50): see the listing below.
# System: Human immunodeficiency virus 1
# Test name: Antiviral activity against HIV 1 NL4.3 integrase E92Q mutant infected in human MT-4 cells assessed as inhibition of virus-induced cytopathic effect by MTT assay
# Assay type: functional, organism-based
# Assay setup: Human immunodeficiency virus 1, NL4.3, MT4
Please be aware that the numbers have been log10-transformed from EC50 in µM.

Solved cases (3 shown):
{"Smiles": "COc1cc2c(cc1Cc1cccc(Cl)c1F)c(=O)c(C(=O)O)cn2[C@H](CO)C(C)C", "System tested": "Human immunodeficiency virus 1", "log10(EC50)": -1.92}
{"Smiles": "O=C(NCc1ccc(F)cc1)c1nc(N2CCCCS2(=O)=O)c2cccnc2c1O", "System tested": "Human immunodeficiency virus 1", "log10(EC50)": -1.14}
{"Smiles": "CC(C)c1nc(CN(C)C(=O)N[C@H](C(=O)N[C@@H](Cc2ccccc2)C[C@H](O)[C@H](Cc2ccccc2)NC(=O)OCc2cncs2)C(C)C)cs1", "System tested": "Human immunodeficiency virus 1", "log10(EC50)": -1.24}

Human immunodeficiency virus 1 / log10(EC50) / COc1cccc2c1c(C(=O)/C=C(\O)C(=O)O)cn2Cc1ccc(F)cc1 : value?
-0.18

Human immunodeficiency virus 1 / log10(EC50) / Cc1nnc(C(=O)NC(C)(C)c2nc(C(=O)NCc3ccc(F)cc3)c(O)c(=O)n2C)o1 : value?
-1.82

Human immunodeficiency virus 1 / log10(EC50) / Cc1cn([C@H]2C[C@H](N=[N+]=[N-])[C@@H](CO)O2)c(=O)[nH]c1=O : value?
-2.15

---

# System: Human immunodeficiency virus 1
# Test name: Antiviral activity against HIV 1 NL4.3 assessed as inhibition of virus-induced cytopathic effect by MTT assay
# Assay type: functional, organism-based
# Assay setup: Human immunodeficiency virus 1, NL4.3
pEC50: −log10 of the molar value.
Class Condition met: pEC50 at least 8. Class Condition not met: pEC50 below 8.

{"Smiles": "Cc1nnc(C(=O)NC(C)(C)c2nc(C(=O)NCc3ccc(F)cc3)c(O)c(=O)n2C)o1", "Assigned category": "Condition met"}
{"Smiles": "COc1cccc2c1c(C(=O)/C=C(\\O)C(=O)O)cn2Cc1ccc(F)cc1", "Assigned category": "Condition not met"}

Evaluate CC(C)c1nc(CN(C)C(=O)N[C@H](C(=O)N[C@@H](Cc2ccccc2)C[C@H](O)[C@H](Cc2ccccc2)NC(=O)OCc2cncs2)C(C)C)cs1 : pEC50 at minimum 8?
Condition not met

Evaluate O=C(NCc1ccc(F)cc1)c1nc(N2CCCCS2(=O)=O)c2cccnc2c1O : pEC50 at minimum 8?
Condition met

Evaluate COc1cc2c(cc1Cc1cccc(Cl)c1F)c(=O)c(C(=O)O)cn2[C@H](CO)C(C)C : pEC50 at minimum 8?
Condition met

---

Parameter EC50: see the listing below.
# Tested on: Human immunodeficiency virus 1
# Test name: Antiviral activity against HIV 1 3B harboring integrase E92Q S230N double mutant infected in MT-4 cells assessed as inhibition of virus-induced cytopathic effect by MTT assay selected after 20 passages in presence of compound
# Type: functional, organism-based
# Assay setup: Human immunodeficiency virus 1, 3B, MT4
Provide the reading as a plain figure in µM.

Solved cases (6 shown):
{"Compound": "COc1cc2c(cc1Cc1cccc(Cl)c1F)c(=O)c(C(=O)O)cn2[C@H](CO)C(C)C", "EC50 / µM": 0.033}
{"Compound": "O=C(NCc1ccc(F)cc1)c1nc(N2CCCCS2(=O)=O)c2cccnc2c1O", "EC50 / µM": 0.11}
{"Compound": "Cc1ccnc2c1NC(=O)c1cccnc1N2C1CC1 [NEVIRAPINE]", "EC50 / µM": 0.38}
{"Compound": "Cc1cn([C@H]2C[C@H](N=[N+]=[N-])[C@@H](CO)O2)c(=O)[nH]c1=O [ZIDOVUDINE]", "EC50 / µM": 0.018}
{"Compound": "COc1cccc2c1c(C(=O)/C=C(\\O)C(=O)O)cn2Cc1ccc(F)cc1", "EC50 / µM": 1.89}
{"Compound": "c1cc(CN2CCCNCCNCCCNCC2)ccc1CN1CCCNCCNCCCNCC1 [PLERIXAFOR]", "EC50 / µM": 0.049}

Proceed to the following item.
So what does the record say about EC50 for CC(C)c1nc(CN(C)C(=O)N[C@H](C(=O)N[C@@H](Cc2ccccc2)C[C@H](O)[C@H](Cc2ccccc2)NC(=O)OCc2cncs2)C(C)C)cs1 [RITONAVIR] ?
0.069
